experimentalTarget: human mineralocorticoid receptor (MR) (Homo sapiens, UniProt P08235)
Construct: expressed in transfected cells
Sequence (P08235 734-984 limits assumed): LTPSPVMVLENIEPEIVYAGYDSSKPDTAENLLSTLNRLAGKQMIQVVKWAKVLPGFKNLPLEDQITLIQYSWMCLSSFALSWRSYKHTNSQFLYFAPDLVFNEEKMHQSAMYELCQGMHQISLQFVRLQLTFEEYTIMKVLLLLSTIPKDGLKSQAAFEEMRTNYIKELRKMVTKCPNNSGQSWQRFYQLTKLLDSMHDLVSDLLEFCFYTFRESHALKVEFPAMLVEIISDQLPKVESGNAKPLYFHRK
procedureText: Cellular in vitro assay to determine the inhibitory MR activity (GAL4-MR chimera luciferase reporter in CHO K1 cells)
Assay type: cell-based
appliedConditions: aldosterone as agonist
attributeMeasured: IC50 (µM)

[[record]]
compound = "COc1cc(C#N)ccc1C1C(C#N)=C(C(F)(F)F)NC(C)=C1c1nc(C)cs1 (stereo not shown) [Example 3]"
experimentaltarget = "human mineralocorticoid receptor (MR) (Homo sapiens, UniProt P08235)"
attributemeasured = "IC50"
measuredresult = 0.01

[[record]]
compound = "COc1cc(C#N)ccc1C1C(C#N)=C(C)NC(C)=C1c1nc2ccccc2s1 (stereo not shown) [Example 12]"
experimentaltarget = "human mineralocorticoid receptor (MR) (Homo sapiens, UniProt P08235)"
attributemeasured = "IC50"
measuredresult = 0.074

[[record]]
compound = "COc1cc(C#N)ccc1C1C(C#N)=C(C)NC(C)=C1c1nnc(C)s1 (stereo not shown) [Example 24]"
experimentaltarget = "human mineralocorticoid receptor (MR) (Homo sapiens, UniProt P08235)"
attributemeasured = "IC50"
measuredresult = 0.32


[I] COc1cc(C#N)ccc1C1C(C#N)=C(C)NC(C)=C1c1nc(C)cs1 (stereo not shown) [Example 1]
[II] CCc1cnc(C2=C(C)NC(C)=C(C#N)C2c2ccc(C#N)cc2OC)s1 (stereo not shown) [Example 23]
Compare reported IC50 values for I and II . Which is lower? Output the label that corresponds to your choice.
II

[a] CC1=C(C#N)C(c2cccc3ncc(C)cc23)C(c2nc(C)cs2)=C(C)N1 (stereo not shown) [Example 18]
[b] CC1=C(C#N)C(c2cccc3c(=O)cc(C)oc23)C(c2nc(C)cs2)=C(C)N1 (stereo not shown) [Example 4]
Compare reported IC50 values for a and b . Which is lower? Output the label that corresponds to your choice.
b
